Study Target: human recombinant PDE4 (Homo sapiens, UniProt Q07343)
Construct: made in house; host or cells: Saccharomyces cerevisiae BJ2-54
Sequence (Q07343 whole entry): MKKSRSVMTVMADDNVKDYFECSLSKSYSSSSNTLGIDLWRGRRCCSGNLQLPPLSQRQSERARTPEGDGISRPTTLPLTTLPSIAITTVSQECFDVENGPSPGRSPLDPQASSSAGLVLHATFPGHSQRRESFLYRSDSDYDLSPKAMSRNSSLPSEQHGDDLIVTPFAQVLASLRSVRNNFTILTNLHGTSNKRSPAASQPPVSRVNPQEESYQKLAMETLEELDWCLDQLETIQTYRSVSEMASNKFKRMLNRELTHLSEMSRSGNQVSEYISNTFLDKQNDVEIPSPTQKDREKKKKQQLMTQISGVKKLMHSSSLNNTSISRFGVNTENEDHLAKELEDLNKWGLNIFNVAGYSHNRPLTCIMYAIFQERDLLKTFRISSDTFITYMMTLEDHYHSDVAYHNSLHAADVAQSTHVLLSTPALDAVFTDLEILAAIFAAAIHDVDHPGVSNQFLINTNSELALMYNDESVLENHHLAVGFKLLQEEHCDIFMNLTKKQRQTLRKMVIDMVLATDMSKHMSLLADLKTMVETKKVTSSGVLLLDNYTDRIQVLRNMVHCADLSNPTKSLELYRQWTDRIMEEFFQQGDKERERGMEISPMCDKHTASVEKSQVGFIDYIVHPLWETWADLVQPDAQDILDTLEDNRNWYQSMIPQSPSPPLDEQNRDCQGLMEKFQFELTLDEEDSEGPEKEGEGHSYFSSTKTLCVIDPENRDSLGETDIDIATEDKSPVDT
Assay Method Text: Inhibition of human recombinant PDE4 (charcoal separation PDE assay)
Type: biochemical
Condition Context: structure table, read-out: PDE4 IC50
pIC50: −log10 of the molar value.

- Test Smiles: "CCOC(=O)c1c(C)nn(-c2ncccc2N)c1C"
  Study Target: "human recombinant PDE4 (Homo sapiens, UniProt Q07343)"
  pIC50: 6.03
- Test Smiles: "COC(=O)c1cnn(-c2cc(C(F)(F)F)cc(C)n2)c1C(=O)C=CN(C)C"
  Study Target: "human recombinant PDE4 (Homo sapiens, UniProt Q07343)"
  pIC50: 4.43
- Test Smiles: "Cc1nn(-c2ccccc2)c(C)c1C(=O)Nc1ccccc1"
  Study Target: "human recombinant PDE4 (Homo sapiens, UniProt Q07343)"
  pIC50: 3.85
- Test Smiles: "CCOC(=O)c1c(C)nn(-c2ccccc2[N+](=O)[O-])c1C"
  Study Target: "human recombinant PDE4 (Homo sapiens, UniProt Q07343)"
  pIC50: 6.19

====

Catalogue of pIC50 values
Study Target: human recombinant PDE4 (Homo sapiens)
Construct: made in house; host or cells: Saccharomyces cerevisiae BJ2-54
Assay Method Text: Inhibition of human recombinant PDE4 (charcoal separation PDE assay)
Format: biochemical
Condition Context: structure table, read-out: PDE4 IC50
pIC50: −log10 of the molar value.

- Test Smiles: "Cc1nn(-c2ccc(N)cc2)c(C)c1C(=O)O"
  pIC50: 3.76
- Test Smiles: "CCOC(=O)c1cnn(-c2ccc([N+](=O)[O-])cc2)c1C(F)(F)F"
  pIC50: 4.34
- Test Smiles: "CCOC(=O)c1c(C)nn(-c2ccccc2)c1C"
  pIC50: 6.51
- Test Smiles: "CCOC(=O)c1cnn(-c2ccc(N)cc2)c1C(F)(F)F"
  pIC50: 5.44
- Test Smiles: "Cc1ccc(OC(=O)c2c(C)nn(-c3ccccc3)c2C)cc1"
  pIC50: 4.44
- Test Smiles: "Cc1nn(-c2ccccc2)c(C)c1C=O"
  pIC50: 4.74

Origin of measurements: patent US7087634B2
